Taken from paper PMC11501026.

test: in situ brain/choroid plexus perfusion: CNS uptake of [^3H]-arginine, [^3H]-ADMA and [^14C]-sucrose (multiple-time and single-time uptake analysis); conditions: male, BALB/c, mouse, in vivo, tissue or CSF to plasma ratio (mean), cerebellum; 20 mins; uncorrected; given as fraction
experimental_readout: Kp at 20 min
Number only, please.

Record request: Kp at 20 min value, item OC[C@H]1O[C@@](CO)(O[C@H]2O[C@H](CO)[C@@H](O)[C@H](O)[C@H]2O)[C@@H](O)[C@@H]1O [[^14C]-sucrose, reference compound]
0.0456

====

tested on: [3H]-ADMA transport across the blood-brain and blood-CSF barriers; assay: self-inhibition, in situ perfusion: [^3H]-ADMA with 100 μM unlabelled ADMA; type: in vivo, mouse; settings: male, Balb/c, mouse, thalamus, other: in situ brain perfusion, with unlabelled ADMA 100 µM, [3H] ADMA + [14C] Sucrose + 100uM un-labelled ADMA, 10 mins, Balb/c ♂, 5ml/min; individual mice; read-out: uptake into thalamus
Structures can show the parent of a compound that is named as a salt.
experimental_readout: Kp at 10 min, 62.5 nM
Number only, please.

What Kp at 10 min, 62.5 nM appears in the records for this compound with [3H]-ADMA transport across the blood-brain and blood-CSF barriers? CN(C)C(N)=NCCC[C@H](N)C(=O)O [ADMA, N^G,N^G-dimethylarginine dihydrochloride]
0.077
